Molecular target: T1, recombinant human soluble gpNMB (recombinant human gpNMB-FLAG-His) (human, UniProt Q14956 23-498)
T1 sequence: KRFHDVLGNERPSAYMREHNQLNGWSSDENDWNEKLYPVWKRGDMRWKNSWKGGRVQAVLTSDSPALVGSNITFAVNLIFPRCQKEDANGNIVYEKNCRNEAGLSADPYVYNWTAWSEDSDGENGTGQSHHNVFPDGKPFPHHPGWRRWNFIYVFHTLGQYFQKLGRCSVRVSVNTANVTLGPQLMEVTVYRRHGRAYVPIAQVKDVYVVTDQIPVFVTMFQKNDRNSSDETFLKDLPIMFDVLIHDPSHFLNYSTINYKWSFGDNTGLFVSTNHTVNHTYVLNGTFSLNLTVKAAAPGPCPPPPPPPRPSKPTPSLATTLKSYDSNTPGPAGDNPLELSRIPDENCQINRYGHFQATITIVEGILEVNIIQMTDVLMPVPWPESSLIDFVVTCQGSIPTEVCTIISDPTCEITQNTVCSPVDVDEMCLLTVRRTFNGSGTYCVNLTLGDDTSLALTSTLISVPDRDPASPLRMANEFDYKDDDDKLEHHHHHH
Assay: antigen ELISA, vs hGPN06-1_H1L1
Kind request: treat 0.3 as inclusive, so Relative binding activity at 0.3 or higher is t, anything lower is f.

Input line: Dear colleague, could you confirm whether hGPN06-1_H1L1 VL I29A (antibody, V domains shown) VH: QVQLVQSGAEVKKPGASVKVSCKASGYTFTDNWMGWVKQRPGQGLEWIGAIDPSDSFTNYNQNFKGRVTMTVDTSISTAYMELSRLRSDDSAVYFCTRSGYYGSPKLGGDYWGQGTLVTVSS VL: EIVLTQSPSSLSASVGDRVTITCSASSSASYMHWYQQKSGTAPKLLIYSTSNLASGVPSRFSGSGSGTDFTFTISSLQPEDAATYYCHQWNSYPCTFGGGTKLEIK has Relative binding activity at or above 0.3?
Output line: f

Input line: Dear colleague, could you confirm whether hGPN06-1_H1L1 VL S92A (antibody, V domains shown) VH: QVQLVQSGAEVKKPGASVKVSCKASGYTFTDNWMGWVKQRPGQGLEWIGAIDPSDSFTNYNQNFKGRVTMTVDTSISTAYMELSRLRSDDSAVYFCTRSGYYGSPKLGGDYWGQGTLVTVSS VL: EIVLTQSPSSLSASVGDRVTITCSASSSISYMHWYQQKSGTAPKLLIYSTSNLASGVPSRFSGSGSGTDFTFTISSLQPEDAATYYCHQWNAYPCTFGGGTKLEIK has Relative binding activity at or above 0.3?
Output line: f

Input line: Dear colleague, could you confirm whether hGPN06-1_H1L1 VL S49A (antibody, V domains shown) VH: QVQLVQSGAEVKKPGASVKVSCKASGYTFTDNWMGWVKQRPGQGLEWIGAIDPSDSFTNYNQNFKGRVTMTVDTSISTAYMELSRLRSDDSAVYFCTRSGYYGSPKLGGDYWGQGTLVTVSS VL: EIVLTQSPSSLSASVGDRVTITCSASSSISYMHWYQQKSGTAPKLLIYATSNLASGVPSRFSGSGSGTDFTFTISSLQPEDAATYYCHQWNSYPCTFGGGTKLEIK has Relative binding activity at or above 0.3?
Output line: t

Input line: Dear colleague, could you confirm whether hGPN06-1_H1L1 VL S24A (antibody, V domains shown) VH: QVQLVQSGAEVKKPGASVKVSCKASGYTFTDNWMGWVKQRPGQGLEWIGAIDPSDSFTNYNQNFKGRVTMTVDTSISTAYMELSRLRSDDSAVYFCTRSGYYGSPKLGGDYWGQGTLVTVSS VL: EIVLTQSPSSLSASVGDRVTITCAASSSISYMHWYQQKSGTAPKLLIYSTSNLASGVPSRFSGSGSGTDFTFTISSLQPEDAATYYCHQWNSYPCTFGGGTKLEIK has Relative binding activity at or above 0.3?
Output line: t
